ELISA (OD450) by entry:
Molecular target: T1, MD50 protein
T1 construct: range 487-580; also called proximal membrane fragment of mesothelin
T1 sequence (Q13421 495-588): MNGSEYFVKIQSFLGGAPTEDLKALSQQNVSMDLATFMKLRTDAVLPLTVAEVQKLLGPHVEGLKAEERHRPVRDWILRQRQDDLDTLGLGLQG
Assay: ELISA, antigen coated, TG1 supernatant; note: test concentration or dose not given here
ASSAY READOUT: ELISA (OD450)

BINDER	ASSAY READOUT	UOM	EXPERIMENTAL RESULT
M118 (VHH, Nanoantibody in TG1 supernatant in the screening ELISA; also called clone M118) VHH: EVQLVESGGGLVQAGGSLTLSCAASEHTFTIDAMGYYRQIPGRRNERQLVAAAGRTGTTYYNDAVKDRFTIYRDTSKETIILQMNNLRPEDTTMYYCAVERYSDQSRFFGPGTQVTVSS	ELISA (OD450)	OD450	2.06
M182 (VHH, Nanoantibody in TG1 supernatant in the screening ELISA; also called clone M182) VHH: QVQLVESGGGSVQAGGSLTLSCAASGAVSSINAMGWYRQTPEKVRQLVATMGSGGNTYYAASVKGRFTISRDYAKNTVALQMNHLLPEDTAVYYCAADRFGADIREVDYWGKGTQVTVSS	ELISA (OD450)	OD450	1.14
M132 (VHH, Nanoantibody in TG1 supernatant in the screening ELISA; also called clone M132) VHH: QVQLVESGGGLVQAGGSLSLSCVASGDAFSFDAMGWYRQFSGKVNERQLVVATSRDGRTAYGERVKGRFTASRDNSKNTLSLVMNNLQVEDTAIYYCAAGDDPKDYYWGQGTQVTVSS	ELISA (OD450)	OD450	1.17
M169 (VHH, Nanoantibody in TG1 supernatant in the screening ELISA; also called clone M169) VHH: EVQLVESGGGTVQPGESLRLSCEASGAVSTINAMGWYRQTPEMRKLVATMGSGGNTYYADSVKGRFTISRDFAGNTVDLQMNDLKPEDTGVYFCAADKFGADIKEVAYWGKGTLVTVSS	ELISA (OD450)	OD450	1.19
M126 (VHH, Nanoantibody in TG1 supernatant in the screening ELISA; also called clone M126) VHH: EVQLVESGGGWVQSGGSLRLACAASGDSFGLNVVGWYRLAPDKQRELVASIGNGGRTTDYADSVKGRFTISSDNAKNTVFLQMNDLKPEDTAMYYCHLRVSVTEGYWGQGTQVTVSS	ELISA (OD450)	OD450	0.926
M156 (VHH, Nanoantibody in TG1 supernatant in the screening ELISA; also called clone M156) VHH: QVQLVESGGGLVQAGGSLRLSCAVSGISFEYYAIGWFRQAPGKEREAVSCTTSGTTSGGGVTDYADSLKGRFTISRDVAKNTVYLQMNNLTPEDTAVYYCAADIHCRGYVLFVPSDFGNWGQGTQVTVSS	ELISA (OD450)	OD450	1.53
M224 (VHH, Nanoantibody in TG1 supernatant in the screening ELISA; also called clone M224) VHH: QVQLVESGGGLVQPGGSLRLSCAASGFTFHYYAIGWFRQAPGKEREGVSCISSSGDSTWFSDSVKGRFTVSRDNAKNIVHLQMNNLKPEDTAVYYCAGTTRSGYVCYDAEPYDSWGQGTQVTVSS	ELISA (OD450)	OD450	1.78
M143 (VHH, Nanoantibody in TG1 supernatant in the screening ELISA; also called clone M143) VHH: EVQLVESGGGLVQAGGSLRLSCSASEKTFSIKYMGYYRQGPGIERKLVATIDTDGKTWYADSVKGRFTISRENGENEIGLEMNRLKPEDTAMYYCAGETGTYPKPEYWGQGTQVTVSS	ELISA (OD450)	OD450	1.3

Values were extracted from patent US20240190986A1.
